Molecular target: ALDH2*1/*2 (Homo sapiens, UniProt P05091, E504K)
Construct: His-tag; made in house; host or cells: E. coli BL21 (pETDuet-1 co-expression)
Sequence (P05091 18-517, stated change not applied): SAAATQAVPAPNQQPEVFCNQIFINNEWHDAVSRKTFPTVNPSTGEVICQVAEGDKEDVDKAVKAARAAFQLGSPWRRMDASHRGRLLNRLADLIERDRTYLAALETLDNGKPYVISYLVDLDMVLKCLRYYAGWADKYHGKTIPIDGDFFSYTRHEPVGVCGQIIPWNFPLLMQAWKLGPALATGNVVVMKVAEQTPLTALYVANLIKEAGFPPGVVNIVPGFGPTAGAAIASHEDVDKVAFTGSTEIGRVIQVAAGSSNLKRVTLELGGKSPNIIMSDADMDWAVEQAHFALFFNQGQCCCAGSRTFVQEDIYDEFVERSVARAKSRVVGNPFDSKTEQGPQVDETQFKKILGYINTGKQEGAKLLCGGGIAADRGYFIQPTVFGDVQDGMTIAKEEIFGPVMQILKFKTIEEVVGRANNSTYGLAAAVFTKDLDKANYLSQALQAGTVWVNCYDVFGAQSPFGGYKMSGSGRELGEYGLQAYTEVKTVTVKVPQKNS
Sequence (P05091 18-517 E504K): as the sequence (P05091 18-517, stated change not applied) above, with E487K counted along it
Assay: ALDH2 enzymatic activity, NADH accumulation at 340 nm, acetaldehyde substrate, heterozygous form
Assay type: biochemical
Conditions: 5 μM compound; relative to baseline enzymatic activity (100%)

- compound: "COc1ccc(CNC(=O)c2cc(-c3cccnc3CO)cnc2OCC2CC2)cc1F [AC11]"
  activity at 5 µM [%]: 158
- compound: "COc1ccc(CNC(=O)c2cc(-c3ccccc3CO)cnc2OCC2CC2)cc1F [AC1]"
  activity at 5 µM [%]: 294
- compound: "COc1ccc(CNC(=O)c2cc(-c3c[n+]([O-])ccc3CO)ccc2OCC2CC2)cc1F [AC13]"
  activity at 5 µM [%]: 195
- compound: "COc1ccc(CNC(=O)c2cc(-c3ccsc3CO)cnc2OCC2CC2)cc1F [AC25]"
  activity at 5 µM [%]: 321

###

Biological target: ALDH2 (Homo sapiens)
Construct: His-tag (N); made in house; host or cells: E. coli BL21
Sequence (P05091 18-517): as the sequence (P05091 18-517, stated change not applied) above
Test: ALDH2 activity with 20 μM of the compound (Table 3)
Format: biochemical
Conditions: 20 μM compound
// reported activity at 20 µM per item

- compound: "[2H]C(O)c1cccnc1-c1ccc(OCC2CC2)c(C(=O)NCc2ccc(OC([2H])([2H])[2H])c(F)c2)c1 (centres unmarked) [AC157]"
  activity at 20 µM: "> 250%"
- compound: "COc1ccc(CNC(=O)c2cc(-c3ccsc3CO)ccc2OCC2CC2)cc1F [AC27]"
  activity at 20 µM: "> 250%"
- compound: "COc1ccc(CNC(=O)c2cc(-c3cscc3CO)ccc2OCC2CC2)cc1F [AC29]"
  activity at 20 µM: "> 250%"
- compound: "COc1ccc(CNC(=O)c2cc(-c3cnccc3CO)ccc2OC(C)C)cc1F [AC101]"
  activity at 20 µM: "> 250%"
- compound: "CC(C)(C)c1ccc(CNC(=O)c2cc(-c3ccccc3CO)cnc2OCC2CC2)cc1 [AC50]"
  activity at 20 µM: "100 to 150%"
- compound: "COc1ccc(CNC(=O)c2cc(-c3cccc(F)c3CO)cnc2OCC2CC2)cc1F [AC18]"
  activity at 20 µM: "150 to 250%"
- compound: "O=C(NCc1ccc(F)cc1)c1cc(-c2ccccc2CO)cnc1OCC1CC1 [AC53]"
  activity at 20 µM: "100 to 150%"
- compound: "COc1ccc(CNC(=O)c2cc(-c3ccccc3C(C)O)cnc2OCC2CC2)cc1F (centres unmarked) [AC89]"
  activity at 20 µM: "100 to 150%"
- compound: "COc1ccc(CNC(=O)c2cc(-c3sccc3CO)cnc2OCC2CC2)cc1F [AC26]"
  activity at 20 µM: "> 250%"
- compound: "O=C(NCc1ccc(Cl)c(Cl)c1)c1cc(-c2ccccc2CO)cnc1OCC1CC1 [AC54]"
  activity at 20 µM: "150 to 250%"
- compound: "COc1ccc(CNC(=O)c2cc(-c3ccccc3CO)cnc2OCC2CC2)cc1F [AC1]"
  activity at 20 µM: "> 250%"

###

// reported activity at 10 µM per item
Biological target: ALDH2*1/*2 (Homo sapiens, UniProt P05091, E504K)
Construct: His-tag; made in house; host or cells: E. coli BL21 (pETDuet-1 co-expression)
Experiment: ALDH2 enzymatic activity, NADH accumulation at 340 nm, acetaldehyde substrate, heterozygous form
Assay type: biochemical
Conditions: 10 μM compound; relative to baseline enzymatic activity (100%)

- molecule smiles: "COc1ccc(CNC(=O)c2cc(-c3ncccc3CO)cnc2OCC2CC2)cc1F"
  assay target: "ALDH2*1/*2 (Homo sapiens, UniProt P05091, E504K)"
  activity at 10 µM (%): 328
- molecule smiles: "COc1ccc(CNC(=O)c2cc(-c3c(F)cccc3CO)cnc2OCC2CC2)cc1F"
  assay target: "ALDH2*1/*2 (Homo sapiens, UniProt P05091, E504K)"
  activity at 10 µM (%): 191
- molecule smiles: "COc1ccc(CNC(=O)c2cc(-c3cscc3CO)ccc2OCC2CC2)cc1F"
  assay target: "ALDH2*1/*2 (Homo sapiens, UniProt P05091, E504K)"
  activity at 10 µM (%): 392
- molecule smiles: "COc1ccc(CNC(=O)c2cc(-c3ccccc3CO)ccc2OCC2CC2)cc1F"
  assay target: "ALDH2*1/*2 (Homo sapiens, UniProt P05091, E504K)"
  activity at 10 µM (%): 408
- molecule smiles: "COc1ccc(CNC(=O)c2cc(-c3c[n+]([O-])ccc3CO)ccc2OCC2CC2)cc1F"
  assay target: "ALDH2*1/*2 (Homo sapiens, UniProt P05091, E504K)"
  activity at 10 µM (%): 247
- molecule smiles: "COc1ccc(CNC(=O)c2cc(-c3ccc(F)cc3CO)cnc2OCC2CC2)cc1F"
  assay target: "ALDH2*1/*2 (Homo sapiens, UniProt P05091, E504K)"
  activity at 10 µM (%): 390
- molecule smiles: "COc1ccc(CNC(=O)c2cc(-c3ccccc3CO)cnc2OCC2CC2)cc1F"
  assay target: "ALDH2*1/*2 (Homo sapiens, UniProt P05091, E504K)"
  activity at 10 µM (%): 383
- molecule smiles: "COc1ccc(CNC(=O)c2cc(-c3cccnc3CO)ccc2OCC2CC2)cc1F"
  assay target: "ALDH2*1/*2 (Homo sapiens, UniProt P05091, E504K)"
  activity at 10 µM (%): 291
- molecule smiles: "COc1ccc(CNC(=O)c2cc(-c3cc(F)ccc3CO)cnc2OCC2CC2)cc1F"
  assay target: "ALDH2*1/*2 (Homo sapiens, UniProt P05091, E504K)"
  activity at 10 µM (%): 255
